# Species on record: Mus musculus
# experimental_details: Protective index, ratio of TD50 for NMRI mouse to ED50 for NMRI mouse formalin-induced neuropathic pain model
# Type: functional

molecule	readout_qualifier	Ratio TD50/ED50
COC[C@H](N)C(=O)NCc1ccccc1	=	0.5
CC(C)[C@@H](N)C(=O)NCc1ccccc1	=	2.4
CCC[C@@H](N)C(=O)NCc1ccccc1	=	1.6
NC(CO)C(=O)NCc1ccccc1 (racemic)	>	1.8
COC[C@@H](N)C(=O)NCc1ccccc1	>	1.8

====

TD50 at 0.5 h by entry:
# experimental_details: Neurotoxicity in ip dosed CF1 mouse assessed as minimal motor impairment after 30 mins
# Assay type: toxicity, organism-based
# condition_details: in vivo

compound	TD50 at 0.5 h
COC[C@@H](N)C(=O)NCc1ccccc1	> 120 mg/kg
N[C@@H](CO)C(=O)NCc1ccccc1	> 110 mg/kg
CCC[C@@H](N)C(=O)NCc1ccccc1	57 mg/kg
NC(CO)C(=O)NCc1ccccc1 (racemic)	> 110 mg/kg
C#CCOCC(N)C(=O)NCc1ccccc1 (racemic)	47 mg/kg
N[C@H](CO)C(=O)NCc1ccccc1	> 110 mg/kg
